Known pIC50 of a selection of molecules
system.under.test: human EP3 receptor (Homo sapiens)
protocol.details: Cellular in vitro assay for determining EP3 receptor activity (human EP3 cell line, sulprostone-stimulated calcium luminescence)
assay.conditions: CHO cells expressing human EP3 and mitochondrial Clytin; antagonist mode, sulprostone at EC50; read-out: EP3 CHO mtCLY ANTAG IC50
Description: B-1. Cellular In Vitro Assay for Determining EP3 Receptor Activity The identification of antagonists of the EP3 receptor from humans and rats as well as the quantification of the activity of the compounds of the invention was carried out using recombinant cell lines. […] Antagonists inhibit the receptor signaling, leading to reduced calcium release and luminescence. The bioluminescence of the cell lines is detected using a suitable luminometer (Trends Pharmacol. Sci. 1996, 17, 235-237). […]
Value format note: pIC50 is -log10 of concentration (mol/L); just state the number.

| molecule | pIC50 |
| --- | --- |
| Cc1ccc(-c2cn3nc(C(=O)N[C@@H](c4ccc(F)cc4)C(F)(F)CO)c(C)c3c(=O)[nH]2)c(F)c1F | 8.46 |
| Cc1ccc(-c2cn3nc(C(=O)NC(C)c4ccc(O)cc4)cc3c(=O)[nH]2)cc1C (stereo not shown) [Example 1-137] | 8.54 |
| O=C(NCCc1ccccc1)c1cc2c(=O)[nH]c(-c3ccc4c(c3)OCCO4)cn2n1 | 8.27 |
| Cc1cccc2ncc(-c3cn4nc(C(=O)N[C@H]5CCCc6ccccc65)c(C(C)C)c4c(=O)[nH]3)cc12 | 8.37 |
| COc1ccc(C(C)NC(=O)c2cc3c(=O)[nH]c(-c4ccc5ccccc5c4)cn3n2)cc1OC (stereo not shown) | 8.94 |
| O=C(NC(CCn1cncn1)c1ccccc1)c1cc2c(=O)[nH]c(-c3ccc4c(c3)OCCO4)cn2n1 (stereo not shown) | 8.66 |

Moving on to the next molecule.
State the recorded pIC50 for this entry: CC(NC(=O)c1cc2c(=O)[nH]c(-c3ccc4ccccc4c3)cn2n1)c1ccc(O)cc1 (stereo not shown) [Example 1-136] 8.24

* * *

system.under.test: human EP3 receptor (Homo sapiens, UniProt P43115)
Sequence (P43115 1-390): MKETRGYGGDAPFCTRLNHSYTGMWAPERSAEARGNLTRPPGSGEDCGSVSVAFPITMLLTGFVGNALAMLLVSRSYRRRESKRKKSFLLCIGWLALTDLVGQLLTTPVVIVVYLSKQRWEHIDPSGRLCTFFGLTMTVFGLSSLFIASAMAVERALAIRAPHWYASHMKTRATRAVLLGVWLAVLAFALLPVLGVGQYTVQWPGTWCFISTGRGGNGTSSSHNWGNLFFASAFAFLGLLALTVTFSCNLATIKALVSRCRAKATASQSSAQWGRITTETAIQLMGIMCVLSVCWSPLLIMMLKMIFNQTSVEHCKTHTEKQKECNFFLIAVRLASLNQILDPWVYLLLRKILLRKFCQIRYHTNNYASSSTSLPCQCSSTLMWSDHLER
protocol.details: Cellular in vitro assay for determining EP3 receptor activity (human EP3 cell line, sulprostone-stimulated calcium luminescence)
assay.conditions: CHO cells expressing human EP3 and mitochondrial Clytin; antagonist mode, sulprostone at EC50; read-out: EP3 CHO mtCLY ANTAG IC50
Catalogue of molecules with associated IC50
Please state the figure in nM; there is no need to write the unit.

Worked examples follow.
| molecule | system.under.test | IC50 / nM |
| --- | --- | --- |
| Cc1cc(-c2cn3nc(C(=O)NC(c4ccc(F)cc4)C4(O)CC4)c(C4CC4)c3c(=O)[nH]2)ccc1F (racemic) [6-650] | human EP3 receptor (Homo sapiens, UniProt P43115) | 1.55 |
| CC[C@@H](C)NC(=O)c1nn2cc(-c3ccc(Cl)c(C)c3)[nH]c(=O)c2c1C(F)(F)F | human EP3 receptor (Homo sapiens, UniProt P43115) | 6.67 |
| Cc1cccc2ncc(-c3cn4nc(C(=O)NC(CN(C)C)c5ccccc5)c(C(C)C)c4c(=O)[nH]3)cc12 (stereo not shown) | human EP3 receptor (Homo sapiens, UniProt P43115) | 1.75 |
| COc1ccc(C2(NC(=O)c3cc4c(=O)[nH]c(-c5ccc6ccccc6c5)cn4n3)CN(C)C2)cn1 | human EP3 receptor (Homo sapiens, UniProt P43115) | 7.1 |
| Cc1ccc(-c2cn3nc(C(=O)NCC(O)C(F)(F)F)c(C(F)(F)F)c3c(=O)[nH]2)cc1Cl (single isomer, unassigned) [6-160] | human EP3 receptor (Homo sapiens, UniProt P43115) | 0.99 |

I'd like to know its IC50. The molecule in question is Cc1ccc(-c2cn3nc(C(=O)NC(C)c4cnc(OCC(F)(F)F)cn4)cc3c(=O)[nH]2)cc1C (stereo not shown) 3.85

// lookup IC50 for "COc1ccc(C2(NC(=O)c3nn4cc(-c5ccc(C)c(C)c5)[nH]c(=O)c4c3C3CC3)CN(C)C2)cc1" 5.15

* * *

Entries annotated with measured pIC50
system.under.test: human EP3 receptor (Homo sapiens, UniProt P43115)
Construct: expressed in transfected cells; host or cells: CHO K1 (Chinese Hamster Ovary), stably co-transfected with Galpha16 and mitochondrial clytin
Sequence (P43115 1-390): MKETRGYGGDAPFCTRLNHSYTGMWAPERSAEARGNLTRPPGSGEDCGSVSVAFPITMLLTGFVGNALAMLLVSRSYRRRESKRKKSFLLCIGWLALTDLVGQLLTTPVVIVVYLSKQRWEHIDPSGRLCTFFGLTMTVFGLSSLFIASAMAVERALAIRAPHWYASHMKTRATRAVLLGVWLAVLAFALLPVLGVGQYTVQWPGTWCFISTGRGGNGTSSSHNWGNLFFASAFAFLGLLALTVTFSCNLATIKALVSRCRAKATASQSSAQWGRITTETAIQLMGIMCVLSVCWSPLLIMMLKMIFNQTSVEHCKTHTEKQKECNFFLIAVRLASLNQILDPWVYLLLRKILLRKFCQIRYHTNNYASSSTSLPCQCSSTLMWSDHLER
protocol.details: Cellular in vitro assay for determining EP3 receptor activity (human EP3 cell line, sulprostone-stimulated calcium luminescence)
Type: cell-based
assay.conditions: CHO cells expressing human EP3 and mitochondrial Clytin; antagonist mode, sulprostone at EC50; read-out: EP3 CHO mtCLY ANTAG IC50
Recall that pIC50 is obtained by taking minus log10 of the concentration measured in molar.

| molecule | pIC50 |
| --- | --- |
| Cc1ccc(-c2cn3nc(C(=O)NC(c4ccccc4)C(O)C(F)(F)F)c(C)c3c(=O)[nH]2)cc1F (centres unmarked) [6-407] | 8.99 |
| Cc1ccc(-c2cn3nc(C(=O)N[C@@H](c4ccc(F)cc4)C(C)(C)O)c(C)c3c(=O)[nH]2)c(F)c1F [Example 1-163] | 8.11 |

Consider now this further molecule.
Please look up its pIC50: CN1CC(NC(=O)c2nn3cc(-c4cc(F)c(Cl)c(F)c4)[nH]c(=O)c3c2C2CC2)(c2ccc(F)cc2)C1 [6-471] 8.74

* * *

Listed here: items and their measured log10 of IC50.
system.under.test: human EP3 receptor (Homo sapiens, UniProt P43115)
protocol.details: Cellular in vitro assay for determining EP3 receptor activity (human EP3 cell line, sulprostone-stimulated calcium luminescence)
assay.conditions: CHO cells expressing human EP3 and mitochondrial Clytin; antagonist mode, sulprostone at EC50; read-out: EP3 CHO mtCLY ANTAG IC50
Please interpret these as log10 of IC50 where IC50 is in nM.

Example molecules with recorded log10 of IC50:
| molecule | system.under.test | log10 of IC50 |
| --- | --- | --- |
| CC(NC(=O)c1cc2c(=O)[nH]c(-c3ccc4ccccc4c3)cn2n1)c1ccc(S(N)(=O)=O)cc1 (stereo not drawn) | human EP3 receptor (Homo sapiens, UniProt P43115) | 0.65 |
| CCN(CCO)CC(NC(=O)c1cc2c(=O)[nH]c(-c3cnc4cccc(C)c4c3)cn2n1)c1ccccc1 (stereo not drawn) | human EP3 receptor (Homo sapiens, UniProt P43115) | 0.53 |
| Cc1cccc2ncc(-c3cn4nc(C(=O)N[C@H](C)c5ccc(F)cc5)cc4c(=O)[nH]3)cc12 | human EP3 receptor (Homo sapiens, UniProt P43115) | 0.40 |

Dear colleague, I am looking for the recorded log10 of IC50 of the following molecule: Cc1ccc(-c2cn3nc(C(=O)NC(c4ccc(F)cc4)C(C)(C)O)c(C4CC4)c3c(=O)[nH]2)cc1F (racemic) -0.09

Requested field: log10 of IC50. Item: "CC(C)c1c(C(=O)N[C@H](C)c2ccc(F)cc2)nn2cc(-c3ccc4ccccc4c3)[nH]c(=O)c12" 0.13

* * *

system.under.test: human EP3 receptor (Homo sapiens)
protocol.details: Cellular in vitro assay for determining EP3 receptor activity (human EP3 cell line, sulprostone-stimulated calcium luminescence)
assay.conditions: CHO cells expressing human EP3 and mitochondrial Clytin; antagonist mode, sulprostone at EC50; read-out: EP3 CHO mtCLY ANTAG IC50
Description: B-1. Cellular In Vitro Assay for Determining EP3 Receptor Activity The identification of antagonists of the EP3 receptor from humans and rats as well as the quantification of the activity of the compounds of the invention was carried out using recombinant cell lines. […] Antagonists inhibit the receptor signaling, leading to reduced calcium release and luminescence. The bioluminescence of the cell lines is detected using a suitable luminometer (Trends Pharmacol. Sci. 1996, 17, 235-237). […]
# pIC50 listing for each entry below
Just so you know, pIC50 here is -log10 of the concentration in molar units; reply with that number alone.

| molecule | pIC50 |
| --- | --- |
| Cc1cc(-c2cn3nc(C(=O)NC(C)C4CCC4)c(C4CC4)c3c(=O)[nH]2)ccc1Cl (single isomer, unassigned) [6-299] | 8.36 |

Look up pIC50 for this molecule: CC(NC(=O)c1cc2c(=O)[nH]c(-c3ccc4ccccc4c3)cn2n1)c1cnc(OCC(F)(F)F)cn1 (stereo not shown) 8.15

Report pIC50 for O=C(NC1CCN(CC(F)F)C1)c1nn2cc(-c3ccc4ccccc4c3)[nH]c(=O)c2c1C(F)(F)F (single isomer, unassigned) [6-520] please. 8.50

Look up pIC50 for this molecule: "COc1ccc([C@@H](C)NC(=O)c2cc3c(=O)[nH]c(-c4ccc5c(c4F)OCCO5)cn3n2)cn1" 8.60
